Below is a list of entries, each paired with its recorded MIC value.
Test system: Salmonella typhimurium
Assay Procedure: Antimicrobial activity against ramA::kan-deficient Salmonella enterica serovar Typhimurium BN18/41 harboring plasmid encoded RamR gene, GyrA G81C,acrR mutant genes by agar doubling dilution method
Format: functional, Salmonella enterica subsp. enterica serovar Typhimurium
Outcome Measure: MIC (µg/mL)

>>> recorded_number("CCn1cc(C(=O)O)c(=O)c2ccc(C)nc21 [NALIDIXIC ACID]")
4100
>>> recorded_number("O=C(N[C@H](CO)[C@H](O)c1ccc([N+](=O)[O-])cc1)C(Cl)Cl [CHLORAMPHENICOL]")
16
>>> recorded_number("CN(C)[C@@H]1C(O)=C(C(N)=O)C(=O)[C@@]2(O)C(O)=C3C(=O)c4c(O)cccc4[C@@](C)(O)[C@H]3C[C@@H]12 [TETRACYCLINE]")
2
>>> recorded_number("CC1CCc2cc(F)cc3c(=O)c(C(=O)O)cn1c23 (stereo unspecified) [FLUMEQUINE]")
64
>>> recorded_number("O=C(O)c1cn(C2CC2)c2cc(N3CCNCC3)c(F)cc2c1=O [CIPROFLOXACIN]")
0.5
>>> recorded_number("CS(=O)(=O)c1ccc([C@@H](O)[C@@H](CF)NC(=O)C(Cl)Cl)cc1 [FLORFENICOL]")
8

* * *

Known MIC of a selection of compounds
System: Salmonella typhimurium
Assay Procedure: Antimicrobial activity against Salmonella enterica serovar Typhimurium BN18/21 by agar doubling dilution method
Type: functional, Salmonella enterica subsp. enterica serovar Typhimurium
Outcome Measure: MIC (µg/mL)

>>> recorded_number("CS(=O)(=O)c1ccc([C@@H](O)[C@@H](CF)NC(=O)C(Cl)Cl)cc1 [FLORFENICOL]")
16
>>> recorded_number("CN(C)[C@@H]1C(O)=C(C(N)=O)C(=O)[C@@]2(O)C(O)=C3C(=O)c4c(O)cccc4[C@@](C)(O)[C@H]3C[C@@H]12 [TETRACYCLINE]")
4
>>> recorded_number("O=C(O)c1cn(C2CC2)c2cc(N3CCNCC3)c(F)cc2c1=O [CIPROFLOXACIN]")
0.125
>>> recorded_number("CCn1cc(C(=O)O)c(=O)c2ccc(C)nc21 [NALIDIXIC ACID]")
64
>>> recorded_number("CC1CCc2cc(F)cc3c(=O)c(C(=O)O)cn1c23 (stereo unspecified) [FLUMEQUINE]")
8
>>> recorded_number("O=C(N[C@H](CO)[C@H](O)c1ccc([N+](=O)[O-])cc1)C(Cl)Cl [CHLORAMPHENICOL]")
16

The measured values listed here are drawn from ChEMBL document CHEMBL1671854.
